Parameter: 3' UTR reporter interaction score. Scope: all listed entries.
Test system: MYC
ASSAY REMARKS: 3' UTR reporter interaction score (median-centred robust z-score of log2 firefly/Renilla activity); higher = less repression of the 3' UTR reporter
CONDITION SET: HEK293T; 48 h

QUERY SEQUENCE: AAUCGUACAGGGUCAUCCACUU
ASSAYED SYSTEM: MYC
3' UTR reporter interaction score: 0.0345
--
QUERY SEQUENCE: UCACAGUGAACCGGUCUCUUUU
ASSAYED SYSTEM: MYC
3' UTR reporter interaction score: -0.0365
--
QUERY SEQUENCE: AAGCAGCUGCCUCUGAGGC
ASSAYED SYSTEM: MYC
3' UTR reporter interaction score: 1.09
--
QUERY SEQUENCE: AUUCAUUUGGUAUAAACCGCGAU
ASSAYED SYSTEM: MYC
3' UTR reporter interaction score: 0.404
--
QUERY SEQUENCE: UACCCUGUAGAACCGAAUUUGU
ASSAYED SYSTEM: MYC
3' UTR reporter interaction score: 0.546
--
QUERY SEQUENCE: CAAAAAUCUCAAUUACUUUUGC
ASSAYED SYSTEM: MYC
3' UTR reporter interaction score: 0.393
--
QUERY SEQUENCE: UUAAUGCUAAUCGUGAUAGGGG
ASSAYED SYSTEM: MYC
3' UTR reporter interaction score: 0.891
--
QUERY SEQUENCE: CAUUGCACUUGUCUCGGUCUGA
ASSAYED SYSTEM: MYC
3' UTR reporter interaction score: 0.278
--
QUERY SEQUENCE: AAAAUGGUUCCCUUUAGAGUGUU
ASSAYED SYSTEM: MYC
3' UTR reporter interaction score: 0.494
--
QUERY SEQUENCE: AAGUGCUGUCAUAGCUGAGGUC
ASSAYED SYSTEM: MYC
3' UTR reporter interaction score: 0.212
--
QUERY SEQUENCE: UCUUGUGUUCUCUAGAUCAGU
ASSAYED SYSTEM: MYC
3' UTR reporter interaction score: -0.281
--
QUERY SEQUENCE: GAAGGCGCUUCCCUUUAGAGC
ASSAYED SYSTEM: MYC
3' UTR reporter interaction score: -0.899
--
QUERY SEQUENCE: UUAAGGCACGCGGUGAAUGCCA
ASSAYED SYSTEM: MYC
3' UTR reporter interaction score: -0.0293
--
QUERY SEQUENCE: UUAAGACUUGCAGUGAUGUUUAA
ASSAYED SYSTEM: MYC
3' UTR reporter interaction score: -0.159
--
QUERY SEQUENCE: ACUAGACUGAAGCUCCUUGAGG
ASSAYED SYSTEM: MYC
3' UTR reporter interaction score: 0.201
--
QUERY SEQUENCE: AGGUUACCCGAGCAACUUUGCA
ASSAYED SYSTEM: MYC
3' UTR reporter interaction score: -0.29
--
QUERY SEQUENCE: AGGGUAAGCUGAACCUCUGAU
ASSAYED SYSTEM: MYC
3' UTR reporter interaction score: -0.643
--
QUERY SEQUENCE: AUCGUGCAUCCCUUUAGAGUGUU
ASSAYED SYSTEM: MYC
3' UTR reporter interaction score: -0.211
--
QUERY SEQUENCE: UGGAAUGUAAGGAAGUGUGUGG
ASSAYED SYSTEM: MYC
3' UTR reporter interaction score: 0.26
--
QUERY SEQUENCE: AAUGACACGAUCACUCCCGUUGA
ASSAYED SYSTEM: MYC
3' UTR reporter interaction score: 0.235
